Property label: melting point

# example entries with known answers
Compound	melting point
CCN(CC)CC(=O)OC1CC2(C)C(C(C)=O)CCC2C2CCC3CC(O)C(Cl)CC3(C)C12 (stereo not given)	182 to 187 °C
O=[N+]([O-])c1ccc(CCn2cccn2)cc1	92 to 93 °C
Brc1ccc(CN2CCOCC2)cc1	68 to 71 °C
C=CCOc1cc(OC(=S)N2CCSC2)ccc1Cl	104 to 106 °C
O=C(O)CC(NS(=O)(=O)c1ccc2ccccc2c1)c1ccccc1O (stereo not given)	190 to 200 °C
COC(=O)C1CC(=O)C(N=Nc2ccccc2)=C(O)C1 (stereo not given)	117 to 118 °C
COC(CCN(C(=O)OC(C)(C)C)c1cc(OCc2ccccc2)c2ncccc2c1I)OC	120 to 121 °C
O=C(NCc1ccccc1)c1ccc(OC2CCCC2)c2oc3ccccc3c12	172 to 175 °C

## Input What value of measured melting point is listed for C#CCN(CCC12CC3CC(CC(C3)C1)C2)C(=O)NCCCc1ccncc1 ?
## Output 152 to 154 °C

## Input If you can, please state the reported melting point value of O=C1CN(c2ccccc2)C1=O .
## Output 115 to 117 °C

* * *

compounds and their reported melting point

Compound	melting point
COc1cc2c(cc1Nc1ncc(Cl)c(Nc3ccccc3OCC#N)n1)CCOC(=O)N2C	245 to 247 °C
Cc1ccc(-c2[nH]c(-c3ccccc3)nc2C(=O)Nc2nc(-c3ccccc3)cs2)cc1	274 to 276 °C

Now for a further compound.
## Input Need melting point of CC1(C)CC(C)(c2ccc(Oc3ccc(N)cc3)cc2)c2cc(Oc3ccc(N)cc3)ccc21 (centres undefined) , thanks.
## Output 135 to 136 °C

* * *

Property label: melting point

CC(C)c1ccc2c(-c3cc(C(C)(C)C)c(O)c(C(C)(C)C)c3)nn(CCO)c2n1 110 to 111 °C
Clc1cc2c(cc1Cl)Nc1cscc1CN2 195 to 197 °C
CNS(=O)(=O)c1ccccc1Nc1nc(Nc2ccc3c(c2)CCCC(=O)N3C)ncc1Cl 175 to 177 °C
CCCCCCOc1c(OC)cc(N)c2nccc(C)c12 69 to 71 °C

Moving on to another molecule below.
## Input Query (molecule): O=c1[nH]c2ccc(Cn3ccnc3)cc2[nH]c1=O ; field requested: melting point
## Output > 300 °C

* * *

Property label: melting point

Molecule	Result value
Clc1nc2ccccc2c2c(CCC3CCNCC3)n(-c3ccccc3)nc12	194 °C
CCCCCCCCCCC[C@H](C[C@H](O)[C@H](CCCCCC)C(=O)O)OCc1ccccc1	57 to 60 °C
CC(CC(=O)Nc1cc(-c2ccnc3c(C(=O)c4cccs4)cnn23)ccc1F)C(F)(F)F (stereo not given)	185 to 186 °C
CC(C)N1CCC(CNc2ccc(F)cc2C(=O)Nc2ccc(Cl)cn2)CC1	142 to 144 °C
COc1ccc(Oc2cccc3c2C2(COc4cc5c(cc42)OCCO5)C(=O)N3C)cc1 (stereo not given)	55 to 58 °C

## Input What measured melting point goes with CCCCCN(C(=O)Nc1ccc2c(c1)C(C)(C)CCC2(C)C)c1ccc(C(=O)O)cc1 ?
## Output 201 to 202 °C

## Input Entry CSc1cccc(Oc2ncc(F)cc2C(=O)N[C@@H]2CCCC[C@H]2CO)c1 (relative stereo) : reported melting point = ?
## Output 128 to 129 °C

## Input Quick one: melting point of O=S(=O)(Nc1ccc2c(OCc3csc(-c4ccc(Cl)nc4)n3)cccc2c1)C(F)(F)F ?
## Output 154 to 156 °C

All figures here come from a melting point compilation (Tetko et al.; mined from patent text by program, amines drawn as free bases though some values may be those of a salt).
